Test system: MS2 coat protein
Experiment: apparent KD of MS2 coat protein; higher = weaker reporter binding
Conditions: Eterna round: R107; input ligand: none
Listed here are sequences together with their documented apparent KD of MS2 coat protein.
// return numeric value only (unit: nM, not printed)

Some entries whose results are on file:
1. GUCAGAACAUAUCAUGUUCUGGCACUGGAAGGAGCGAGCGAGAGCUCAGGUAGGUCGCCAGAACAUGAGGAUCACCCAUGUAAUA [(A)''-(M)'-(A)'(Arg1)-(Arg2)-(M1)-(M2)_Design11] = 63.4
2. CAAUAUAUAUGAAGGAGCGUCGAAAAUGGGUAAACAUGAGGAUCACCCAUGUAAAGGGAACGACAGGUAGGUCGCAUAUGUAUUG [AstromonsSSArgB#9] = 165
3. CUGCCAUGCAGGGAUACCAGUGCGUUCAGAACAUGAGGAUCACCCAUGUCGUCUGCCGAUCACCCUUGGCAGCUCUGCAUGGCAG [#05 Same State - Theophylline B] = 9.69
4. GCUAGCCGAAAGGCUAGCAGCGCUACAGAAGGAGCGUGCGAAAGCACAGGUAGGUCGCUGAACAUGAGCAUCAGCCAUGUUGCGC [SSAA - Alter Amptam #2 V2+NP] = 12.2

Challenge: Query the reported apparent KD of MS2 coat protein for MS2 coat protein; item: AUACAUGAGGAUCACCCAUGUUAUAGUGAAGGAGCGACAUUUAGGUCAGGUAGGUCGCACUAUUGAAUUAUUAUCCUCUUUUCUU [JR_ExcArginiA_Sub021]
Response given: 21.3
